Biological target: T1, CD81 (UniProt P60033)
T1 sequence (looked up): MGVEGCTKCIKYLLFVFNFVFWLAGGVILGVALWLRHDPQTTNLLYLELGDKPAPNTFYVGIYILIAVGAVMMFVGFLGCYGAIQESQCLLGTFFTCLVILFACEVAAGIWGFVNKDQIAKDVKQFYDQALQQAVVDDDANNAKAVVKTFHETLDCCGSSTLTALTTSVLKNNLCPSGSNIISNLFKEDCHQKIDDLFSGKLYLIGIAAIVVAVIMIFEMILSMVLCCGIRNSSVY
Test: cell ELISA

- Binder: "CD81K04 HC JA_GG-14-hVH_1_69 / LC GG-04-hVK_4_1 (antibody, V domains shown) VH: QVQLVQSGAEVKKPGSSVKVSCKASGYTFSSSWMNWVRQAPGQGLEWMGRIYSGDGDAIYNGKFKGKATITADESTSTAYMELSSLRSEDTAVYYCAREGKTGDLLLRSWGQGTLVTVSS VL: DIVMTQSPDSLAVSLGERATINCKSSKSVSTSIYSYLAWYQQKPGQPPKLLIYYASTRESGVPDRFSGSGSGTDFTLTISSLQAEDVAVYYCQHSREFPYTFGQGTKLEIK"
  ELISA absorbance: 0.107
